Data credit: PubChem BioAssay AID504660

target: D(1A) dopamine receptor (Homo sapiens); test: Allosteric Agonists of the Human D1 Dopamine Receptor: qHTS; settings: HEK293 T-REx D1 cells, calcium flux, agonist mode; at 2 µM; also: 0% is about no effect
Hit rate of the full screen: of about 360,000 compounds, about 3,700 (1%) were called active. Rule as the data show it: active = activation above about 30%; inactive = the rest. The full list was thinned out, with actives kept by preference.
# valid calls are class 1 (active), class 0 (inactive); nothing else

### Prompt What call does the record list for `CCN(CC)c1ccc2oc(=O)c(C)nc2c1` ?
### Response class 1

### Prompt What call does the record list for `Cn1c(=O)c(=O)n(C)c2cc(NC(=O)c3ccccc3Br)ccc21` ?
### Response class 0

### Prompt What call does the record list for `CC(C)OCCCn1c(SCC(=O)c2ccccc2)nc2c(sc3ccccc32)c1=O` ?
### Response class 0

### Prompt What call does the record list for COc1ccc(OC)c(NC(=O)CSC2=Nc3ccccc3C3=NC(CC(=O)NCc4ccc(F)cc4)C(=O)N23)c1 (stereo unspecified) ?
### Response class 0

### Prompt What call does the record list for `COCc1cc(C)nc(SCC(=O)Nc2cccc(C)c2)c1C#N` ?
### Response class 0

### Prompt What call does the record list for COc1cccc(CN(C)CC(O)COC(c2ccccc2)c2ccccc2C)c1 (stereo unspecified) ?
### Response class 0

### Prompt What call does the record list for `CCCCCn1c(=O)[nH]c2cc(C(=O)Nc3cc(C)cc(C)c3)ccc2c1=O` ?
### Response class 0

### Prompt What call does the record list for `Cc1ccc(-c2cc(C(F)(F)F)c(C#N)c(SCC(=O)Nc3ccccc3)n2)cc1` ?
### Response class 1

### Prompt What call does the record list for Cc1ccccc1CNC(=O)C(=O)NCC(c1cccs1)S(=O)(=O)c1cccs1 (stereo unspecified) ?
### Response class 0

### Prompt What call does the record list for `CC(=O)c1c(C)[nH]c(C(=O)COC(=O)c2cccc(S(=O)(=O)N(C)c3ccccc3)c2)c1C` ?
### Response class 1

### Prompt What call does the record list for `CC(C)NC(=O)c1nn(-c2ccccc2F)nc1CO` ?
### Response class 0

### Prompt What call does the record list for Cc1cccc(-c2nc(CS(=O)CC(=O)NC(C)CCc3ccccc3)c(C)o2)c1 (stereo unspecified) ?
### Response class 1

### Prompt What call does the record list for CN(Cc1ccccc1)CC(O)COc1ccc(CNCc2cc3ccccc3s2)cc1 (stereo unspecified) ?
### Response class 1

### Prompt What call does the record list for `O=S(=O)(c1ccc(Cl)cc1)c1nnn2c1nc(NC1CCCC1)c1sccc12` ?
### Response class 0

### Prompt What call does the record list for `CN(c1ccccc1)S(=O)(=O)c1cccc(C(=O)NNC(=O)c2ccncc2)c1` ?
### Response class 0

### Prompt What call does the record list for `CN(Cc1nc2ccccc2c(=O)[nH]1)Cc1cc(=O)oc2ccc3ccccc3c12` ?
### Response class 0

### Prompt What call does the record list for `CCOc1cccc(C(=O)Nc2nnc(S(=O)(=O)N(C)c3ccc(C)cc3)s2)c1` ?
### Response class 0

### Prompt What call does the record list for C=CCn1c(=N)n(CC(O)COc2ccc(OC)cc2)c2ccccc21 (stereo unspecified) ?
### Response class 1

### Prompt What call does the record list for `Cc1cc(C(F)(F)F)c(C#N)c(SCC(=O)NC2CC2)n1` ?
### Response class 0

### Prompt What call does the record list for `Cc1ccc(CN2CCC(n3nccc3NC(=O)CCCc3ccccc3)CC2)o1` ?
### Response class 0

### Prompt What call does the record list for `CCOC(=O)c1[nH]c(C)c(CCC(=O)NCc2ccccc2C)c1C` ?
### Response class 0
